tested on: non-senescent control IMR90 ER:RAS cells; assay: Nuclei count (Hoechst, high content imaging) senolytic assay, OIS model, non-senescent control cells; type: cell-based, human; conditions: Homo sapiens, IMR-90, 72 h, Control, log (dose) [M] -8, 72 h, mean n=3 (Fig 3C); read-out: Mean % Cell Survival
Please respond with reported viability at 0.01 µM for every item in the list.
Number in %, nothing else.

Quote non-senescent control IMR90 ER:RAS cells viability at 0.01 µM for entry CO[C@H]1C[C@H](O[C@H]2CC[C@@]3(C)[C@H](CC[C@@H]4[C@@H]3CC[C@]3(C)[C@@H](C5=CC(=O)OC5)[C@@H](OC(C)=O)C[C@]43O)C2)O[C@@H](C)[C@@H]1O [Oleandrin, oleandrin] .
92.8

Quote non-senescent control IMR90 ER:RAS cells viability at 0.01 µM for entry O=c1c(O)c(-c2ccc(O)cc2O)oc2cc(O)cc(O)c12 [Morin, morin] .
99.5

Quote non-senescent control IMR90 ER:RAS cells viability at 0.01 µM for entry COc1cc(O)c2c(=O)cc(-c3ccc(OC)c(-c4c(O)cc(O)c5c(=O)cc(-c6ccc(O)cc6)oc45)c3)oc2c1 [Ginkgetin, ginkgetin] .
93

Quote non-senescent control IMR90 ER:RAS cells viability at 0.01 µM for entry Cc1cc2c(C(C)C)c(O)c(O)c(C=O)c2c(O)c1-c1c(C)cc2c(C(C)C)c(O)c(O)c(C=O)c2c1O [Gossypol, gossypol] .
109

Quote non-senescent control IMR90 ER:RAS cells viability at 0.01 µM for entry CO[C@H]1C[C@@H]2CC[C@@H](C)[C@@](O)(O2)C(=O)C(=O)N2CCCC[C@H]2C(=O)O[C@H]([C@H](C)C[C@@H]2CC[C@H](n3cnnn3)[C@H](OC)C2)CC(=O)[C@H](C)/C=C(\C)[C@@H](O)[C@@H](OC)C(=O)[C@H](C)C[C@H](C)/C=C/C=C/C=C/1C [Zotarolimus, zotarolimus, reference compound] .
98.2

Quote non-senescent control IMR90 ER:RAS cells viability at 0.01 µM for entry O=c1oc2c(O)c(O)cc3c(=O)oc4c(O)c(O)cc1c4c23 [Ellagic acid, ellagic acid] .
104

Entry source: paper PMC10257182
